Please respond with reported PBM binding z-score for every item in the list.
system: PPARg DBDmut IVT, anti-PPARg (DBD mutation: PPARg1 K132A/R137A, NR concentration 270 nM); assay: PBM binding z-score (relative to random genomic background probes); higher = stronger binding; sequences stand for … in GC…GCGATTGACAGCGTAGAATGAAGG
One number for each entry.

{"BIOPOLYMER SEQUENCE": "TCATATAGGTAAAGGTCAAAGTCGAACGATATGA", "ENDPOINT RESULT": 1.9}
{"BIOPOLYMER SEQUENCE": "CCTTCTAGGTCAATGGTCAGCTAAAGCAGCTCGC", "ENDPOINT RESULT": 0.699}
{"BIOPOLYMER SEQUENCE": "CTCGAAAGGTCGTGATCAGGTGAGTATACCAAAC", "ENDPOINT RESULT": 0.63}

Quick one: give me PBM binding z-score for each item below, same order please.
1. ACTCGGAGGACAAAGGTCAGTGCTACGCCAGTGA
2. CGAACTAGGCCAAGGACAGTGAATCTCCGCACGC
3. TTACCAAGCTGAAGGTCGTTGATCCCTCTGTAGA

-0.05
-0.452
-1.67

Quick one: give me PBM binding z-score for each item below, same order please.
1. CCTAGCAGGCAAATCTGGGTCACTCAAGGCTTGA
2. TCTATTAGTTGATTAGGGAAACCGAAACAGCGGA
3. AGAATGAGGTTAAGATCACGGAAACAGAATACAT

1: -1.06; 2: 0.978; 3: 0.711
